Biological target: Su(dx) WW2 domain (Drosophila, UniProt Q9Y0H4 392-431)
Sequence (Q9Y0H4 392-431): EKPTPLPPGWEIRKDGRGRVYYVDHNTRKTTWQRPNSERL
Assay: ITC
measured metric: Kd (µM)
Quick reminder: number only, in µM, skip the unit.

AKQPPSYEDCIK [Notch PY motif peptide N1] : 199

Consider the record given below.
Per the record, GPPPPPYPG [WBP1 peptide] has Kd of 116
